# tgt: PAPD5 (Homo sapiens, UniProt Q8NDF8)
# Construct: made in house
# Sequence (Q8NDF8 68-698 isoform Q8NDF8-5): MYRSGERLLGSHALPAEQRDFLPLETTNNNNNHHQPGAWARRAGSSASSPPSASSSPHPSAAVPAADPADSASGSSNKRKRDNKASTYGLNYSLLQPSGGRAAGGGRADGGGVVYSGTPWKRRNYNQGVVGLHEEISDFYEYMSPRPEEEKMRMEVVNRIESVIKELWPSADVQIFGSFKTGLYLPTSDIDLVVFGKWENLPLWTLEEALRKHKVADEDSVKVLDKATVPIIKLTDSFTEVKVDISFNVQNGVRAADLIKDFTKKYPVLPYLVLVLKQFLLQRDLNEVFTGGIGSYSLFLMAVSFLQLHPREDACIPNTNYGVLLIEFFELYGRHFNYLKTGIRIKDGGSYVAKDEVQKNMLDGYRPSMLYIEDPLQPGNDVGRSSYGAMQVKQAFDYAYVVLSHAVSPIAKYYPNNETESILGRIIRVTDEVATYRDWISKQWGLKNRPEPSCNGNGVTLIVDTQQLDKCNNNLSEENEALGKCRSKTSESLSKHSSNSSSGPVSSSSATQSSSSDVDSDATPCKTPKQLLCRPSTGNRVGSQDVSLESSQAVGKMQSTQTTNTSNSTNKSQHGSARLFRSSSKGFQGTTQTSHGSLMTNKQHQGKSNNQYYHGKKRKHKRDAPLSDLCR
# experiment notes: High-throughput luminescence (KinaseGlo) RNA polyadenylation assay, ATP utilization by recombinant PAPD5
# Type: biochemical
# setup conditions: Table 4 (entries of Table 5); 33 μM compound; ratio of luminescence with inhibitor to DMSO
measurement name: Fold-change determined at compound concentration 33 μM

[
  {
    "compound": "CCOC(=O)c1cccc(NC(=O)c2oc3c(c2C)-c2nn(CC)cc2CC3)c1",
    "reported value": 1.19
  },
  {
    "compound": "Cc1ccc2cc(-c3noc(CCC(=O)Nc4nccs4)n3)c(O)nc2c1",
    "reported value": 1.294
  },
  {
    "compound": "N#C/C(=C\\c1ccc(-c2ccc(C(=O)O)cc2)o1)C(=O)Nc1ccccc1C(=O)O",
    "reported value": 1.737
  },
  {
    "compound": "CCc1nnc(NC(=O)c2cc(=O)c3cc(C)c(C)cc3o2)s1",
    "reported value": 1.528
  },
  {
    "compound": "O=C(O)c1cc(-c2ccc(C(F)(F)F)cc2)nc2n[nH]c(-c3ccccc3)c12",
    "reported value": 1.1781
  },
  {
    "compound": "COc1cccc(-c2nnc3n(CCc4ccccc4)c(=O)c4ccccc4n23)c1O",
    "reported value": 1.173
  },
  {
    "compound": "O=S(=O)(NC1=NC2=NC(c3ccccc3)=CC(c3ccc(F)cc3)N2N1)c1ccc(Cl)cc1 (stereo not drawn)",
    "reported value": 1.059
  },
  {
    "compound": "COc1ccc(-c2nc(N3CCOCC3)c3sc(CN(C)c4ncc(C(=O)NO)cn4)cc3n2)cn1",
    "reported value": 1.905
  },
  {
    "compound": "Cc1c(C(=O)N2CCCC2)oc2c1-c1nn(CC(=O)NCc3ccccc3Br)cc1CC2",
    "reported value": 1.296
  },
  {
    "compound": "NC1CCN(c2nc3c(cc2F)c(=O)c(C(=O)O)cn3-c2ccc(F)cc2F)C1 (stereo not drawn)",
    "reported value": 1.298
  },
  {
    "compound": "COc1ccc2c(c1)[nH]c1c(C)nccc12",
    "reported value": 1.1
  },
  {
    "compound": "CCOc1cc(-c2cc(C(=O)O)c3c(-c4ccccc4)[nH]nc3n2)ccc1O",
    "reported value": 1.124
  },
  {
    "compound": "Cn1nc(-c2ccc(Cl)cc2)c2cc(C(=O)O)sc21",
    "reported value": 1.232
  },
  {
    "compound": "Cc1c(C(=O)NCc2ccccc2)oc2c1-c1[nH]ncc1CC2",
    "reported value": 1.094
  },
  {
    "compound": "CCOC(=O)Cn1cnc2sc3c(c2c1=O)CCCC3",
    "reported value": 1.065
  },
  {
    "compound": "COc1ccc(Cc2nccc3cc(OC)c(OC)cc23)cc1OC",
    "reported value": 1.166
  },
  {
    "compound": "CCOC(=O)c1ccc(NC(=O)CCc2c(C)nc3nc[nH]n3c2=O)cc1",
    "reported value": 1.183
  },
  {
    "compound": "COc1ccc(CNC(=O)Nc2cn(CC(C)C)c(=O)c3ccccc23)c(OC)c1 [Entry 60a]",
    "reported value": 1.164
  },
  {
    "compound": "CC(C)c1ccc(C2CC(=O)N3CN(C4CCCCC4)CSC3=C2C#N)cc1 (stereo not drawn)",
    "reported value": 1.072
  },
  {
    "compound": "CCn1c(=S)sc2c(=O)n3[nH]c(=O)c4ccccc4c3nc21",
    "reported value": 1.068
  },
  {
    "compound": "COc1ccc(NC(=O)CCn2c(=O)c3cccn3c3ccccc32)c(OC)c1",
    "reported value": 1.122
  },
  {
    "compound": "Nc1nc(N2CCCC2)nc2ccccc12",
    "reported value": 1.175
  },
  {
    "compound": "COC(=O)c1c(NC(=O)c2ccccc2C(=O)O)sc2c1CCCC2",
    "reported value": 1.199
  },
  {
    "compound": "CC1=C2C(=NC(=O)CC2c2ccc(O)cc2)N(c2ccc3nncn3n2)N1 (stereo not drawn)",
    "reported value": 1.118
  },
  {
    "compound": "CCc1ccccc1NC(=O)Cc1c(C(=O)O)[nH]c2ccc(Cl)cc12",
    "reported value": 1.126
  },
  {
    "compound": "COc1ccc(-c2n[nH]c3nc(-c4ccc(O)c(O)c4)cc(C(=O)O)c23)cc1",
    "reported value": 1.217
  },
  {
    "compound": "Cc1ccc2c(=O)cc(C(=O)Nc3nnc(CC(C)C)s3)oc2c1C",
    "reported value": 1.15
  },
  {
    "compound": "c1ccc(CC2CCN(c3nnc(Cc4ccncc4)c4ccccc34)CC2)cc1",
    "reported value": 1.262
  },
  {
    "compound": "Cc1ccc(-c2nnc(Nc3ccc(OCC(N)=O)cc3)c3ccccc23)cc1S(=O)(=O)NCC1CCCO1 (stereo not drawn)",
    "reported value": 1.226
  },
  {
    "compound": "CCn1cc(C(=O)O)c(=O)c2cc(F)c(N3CCN(C)CC3)cc21",
    "reported value": 1.04
  }
]
